Below, each entry is listed with its recorded Unified cytotox.
System: HepG2 cells
Test: HepG2 cytotoxicity assay
Conditions: HepG2 values of the three screens unified
Numeric only. Scale: µM

According to the records, this molecule Oc1c(C(Nc2nc3ccccc3s2)c2ccccc2)ccc2cccnc12 (stereo not drawn) displays Unified cytotox of 2.34

----------
Tested on: HepG2 cells
Experiment: HepG2 cytotoxicity assay
Settings: unified HepG2 value across the three screens
# key: entry, value: Unified cytotox
Only the number, expressed in µM, is required.

Here's what some known entries look like.
{"columns": ["line-notation", "result-unit", "Unified cytotox"],
 "data": [
  ["CCCCN(C)CC#Cc1ccc(-c2ccc3[nH]c(C)c(Br)c(=O)c3c2)cn1", "µM", 100.00],
  ["CCn1c(C)cc(C=C2SC(=Nc3ccccc3)NC2=O)c1C", "µM", 97.27],
  ["Cc1nc2c(c([O-])c1Cl)-c1ccc(Oc3cccc(C(F)(F)F)c3)cc1C2=O.[Na+]", "µM", 39.81]
]}

// field: Unified cytotox; key: `CN(C)c1ccc(C=CC(=O)NC(=O)c2ccccc2O)cc1` ; value = 100.00

The recorded Unified cytotox for entry `Cc1cccnc1Nc1nc(-c2ccccn2)cs1` equals 3.02

----------
Test system: HepG2 cells
Assay: HepG2 cytotoxicity assay
Conditions: Homo sapiens, HepG2, 48 h, read-out: IC50 HepG2
measured-property: pIC50
Scale note: pIC50 = -log10(concentration in M).

{"columns": ["molecule", "assay-target", "pIC50"],
 "data": [
  ["COc1ccc2ncc(F)c(CCN3CCC(NC(=O)c4ccc5c(n4)NC(=O)CS5)C(O)C3)c2n1 (centres unmarked)", "HepG2 cells", 4.37]
]}

Turning to the following molecule.
So for CCC1CN2CCc3cc(OC)c(OC)cc3C2CC1CC1NCCc2cc(OC)c(OC)cc21 (centres unmarked) , the logged pIC50 turned out to be 4.62

----------
Tested on: HepG2 cells
Test: HepG2 cytotoxicity assay
Conditions: HepG2 values of the three screens unified
measured-property: Unified cytotox (µM)
Respond numerically; units are µM and should not be typed.

These recorded examples may help you get a feel for the data.
{"columns": ["compound", "assay-target", "Unified cytotox [µM]"],
 "data": [
  ["Br.CC(CCON1C(N)=NC(N)=NC1(C)C)c1ccc(Cl)c(Cl)c1 (centres unmarked)", "HepG2 cells", 0.001],
  ["Cc1[nH]c(C)c(-c2ccc(-c3ccc(OC(F)(F)F)cc3)nc2)c(=O)c1Cl", "HepG2 cells", 23.71],
  ["CC(C)N1CCN(CCCCNc2c3ccccc3nc3ccccc23)CC1.Cl", "HepG2 cells", 5.75],
  ["Cc1[nH]c(C)c(-c2ccc(CCc3ccc(C(F)(F)F)cc3)nc2)c(=O)c1Cl", "HepG2 cells", 56.89],
  ["COc1ccc2ncc(C#N)c(CCN3CCC(NCc4ccc5c(n4)NC(=O)CS5)CC3)c2n1.Cl", "HepG2 cells", 54.95]
]}

# evaluate next
# compound `Cc1cc(=O)c(-c2ccc(Oc3cccc(Cl)c3)cc2)c(C)[nH]1` ; its Unified cytotox = 3.72

----------
Tested on: HepG2 cells
Test: HepG2 cytotoxicity assay
Conditions: HepG2 cytotoxicity unified across the three screens
Classify as follows. Reported Unified cytotox greater than or equal to 4 µM: fulfilled. Reported Unified cytotox below: not fulfilled.

Worked cases, answers included:
{"columns": ["molecule", "assay-target", "classification"],
 "data": [
  ["COc1c(OC)c(OC)c2ccccc2c1CNCCCCCCNCc1c(OC)c(OC)c(OC)c2ccccc12.Cl", "HepG2 cells", "not fulfilled"],
  ["Cl.c1ccc2c(C3CCN(CCCCOc4ccc5c(c4)CCN(CC4CC4)CC5)CC3)c[nH]c2c1", "HepG2 cells", "fulfilled"],
  ["CN1CCN(CCCN(Cc2cccc(-c3ccc(CNCCc4ccccc4)cc3)c2)C(=O)c2cccs2)CC1.O=C(O)C(F)(F)F", "HepG2 cells", "fulfilled"],
  ["C[C@H](Cc1ccc(CCc2ccc(C[C@@H](C)NC[C@H](O)c3cccc(Cl)c3)cc2)cc1)NC[C@H](O)c1cccc(Cl)c1.Cl", "HepG2 cells", "not fulfilled"],
  ["C=CCOc1ccc2ccccc2c1CNCCCCCCNCc1c(OCC=C)ccc2ccccc12.CS(=O)(=O)O", "HepG2 cells", "not fulfilled"],
  ["C[C@H](Cc1ccc(C[C@@H](C)NC[C@H](O)c2cccc(Cl)c2)cc1)NC[C@H](O)COc1ccccc1.Cl", "HepG2 cells", "fulfilled"],
  ["CCn1c(-c2nonc2N)nc2c(-c3cc4ccccc4s3)ncc(C(=O)N3CCC(N)C3)c21.O=C(O)C(F)(F)F (stereo not drawn)", "HepG2 cells", "not fulfilled"],
  ["CN(C)CCN(C)Cc1cccc(-c2ccc3c(Nc4ccc(F)cc4Cl)ccnc3c2)c1", "HepG2 cells", "fulfilled"],
  ["C[C@H](Cc1ccc(Oc2ccc(C[C@@H](C)NC[C@H](O)c3cccc(Cl)c3)cc2)cc1)NC[C@H](O)c1cccc(Cl)c1.Cl", "HepG2 cells", "not fulfilled"],
  ["CN1CCN(CCCN(Cc2cccc(-c3ccc(CNC4CCCC4)cc3)c2)C(=O)/C=C/c2ccccc2)CC1.O=C(O)C(F)(F)F", "HepG2 cells", "fulfilled"]
]}

Decide: is the reported value of Unified cytotox for `Cc1c(Cl)cccc1N=C(S)NN=Cc1ccccn1` equal to or greater than 4 µM?
fulfilled

Kindly determine if Unified cytotox recorded for `COc1ccc(OC)c(-c2cccc(-c3cccc(NC(=O)c4ccc([N+](=O)[O-])o4)c3)n2)c1` is above or exactly 4 µM.
fulfilled

Check this molecule for Unified cytotox at or above 4 µM: `FC(F)(F)c1ccc2[nH]c(-c3ccc(-c4ccc(CNCCN5CCNCC5)cc4)s3)nc2c1.O=C(O)C(F)(F)F`
fulfilled

# bool: Unified cytotox of `Br.Oc1ccc(CCNCCCCCCNCCc2ccc(Cl)c3ccccc23)cc1O` >= 4 µM
fulfilled

Does the molecule `CCCCCCCN1CC[C@@H](CCCc2ccnc3ccc(OCCN4CCNCC4)cc23)[C@@H](CC)C1.Cl` have recorded Unified cytotox that is 4 µM or more?
fulfilled

----------
Some molecules, each annotated with its measured HepG2 cytoxicity (Pb ODA, this manuscript).
System: HepG2 cells
Experiment: HepG2 cytotoxicity assay
Conditions: HepG2; this manuscript
Provide the reading as a plain figure in µM.

// solved cases for HepG2 cytoxicity (Pb ODA, this manuscript) follow
{"columns": ["molecule", "assay-target", "numeric-value"],
 "data": [
  ["CC(C)(CN)c1nc(-c2ccc(Br)c(O)c2)c(-c2ccncc2)[nH]1.Cl", "HepG2 cells", 47.32],
  ["Cc1[nH]c(C)c(-c2ccc(OCc3cccc(C(F)(F)F)c3)nc2)c(=O)c1Br", "HepG2 cells", 8.61]
]}

Memo: CCCC(N)C(=O)NC1CCN(c2c(F)c(N)c3c(=O)c(C(=O)O)cn4c3c2Oc2ccccc2-4)C1.Cl (stereo not drawn) , reported HepG2 cytoxicity (Pb ODA, this manuscript): 3.63

Lab note: `CC(C)(CNC(=O)[C@H]1CCCCN1)c1nc(-c2ccc(Cl)c(O)c2)c(-c2ccncc2)[nH]1.Cl` gave HepG2 cytoxicity (Pb ODA, this manuscript) of 61.66

Recorded result, `CC1(C)N=C(N)N=C(N)N1OCCCc1ccccc1.Cl` , HepG2 cytoxicity (Pb ODA, this manuscript): 0.001

// recorded HepG2 cytoxicity (Pb ODA, this manuscript) for COc1ccc2ncc(C#N)c(CCN3C4CCC3CC(NCc3ccc5c(n3)NC(=O)CS5)C4)c2c1.Cl (stereo not drawn) : 6.46

// field: HepG2 cytoxicity (Pb ODA, this manuscript); key: `COc1ccc(C[C@H]2NC[C@H](O)[C@H]2OC(C)=O)cc1` ; value = 2.29

Just so you know, measured HepG2 cytoxicity (Pb ODA, this manuscript) for `Cc1[nH]c(C)c(-c2ccc(-c3ccc(OC(F)(F)F)cc3)nc2)c(=O)c1Cl` came out at 23.71

The molecule listed as `Cc1nc(C)c(-c2ccc(Oc3ccc(Cl)c(Cl)c3)cc2)c(O)c1Br` shows HepG2 cytoxicity (Pb ODA, this manuscript) equal to 19.50

HepG2 cytoxicity (Pb ODA, this manuscript) recorded for this molecule, Br.CC(CON1C(N)=NC(N)=NC1(C)C)c1ccc(Cl)cc1Cl (stereo not drawn) , is 0.001

Entry `COc1ccc2nccc([C@@H](O)CN3CCC(NCCOc4cc(C(F)(F)F)ccc4F)CC3)c2c1.O=C(O)C(=O)O` , HepG2 cytoxicity (Pb ODA, this manuscript) reported as 0.00343

Entry CC(ON1C(N)=NC(N)=NC1(C)C)c1ccccc1 (stereo not drawn) — recorded HepG2 cytoxicity (Pb ODA, this manuscript) = 0.0372

Data point: `O=c1c(Br)ccccc1Br` ; HepG2 cytoxicity (Pb ODA, this manuscript) = 14.79

`Cc1[nH]c(C)c(-c2ccc(OCc3ccccc3C(F)(F)F)nc2)c(=O)c1Br` yielded HepG2 cytoxicity (Pb ODA, this manuscript) of 3.02

The molecule listed as `CC(C)Cn1ccc2c3c(N)nc(N)nc3ccc21` shows HepG2 cytoxicity (Pb ODA, this manuscript) equal to 0.25

// sample `Cc1[nH]c(C)c(-c2ccc(-c3ccccc3Cl)nc2)c(=O)c1Br` , its HepG2 cytoxicity (Pb ODA, this manuscript) was 0.14

The recorded HepG2 cytoxicity (Pb ODA, this manuscript) for `CCCc1cc2c3c(N)nc(N)nc3ccc2n1C(CC)CC` is 0.0017

Lab note: `CCCN1CCN(CCNc2c3ccccc3nc3ccccc23)CC1` gave HepG2 cytoxicity (Pb ODA, this manuscript) of 7.41
